# assayedTarget: Type-1 angiotensin II receptor A (Rattus norvegicus)
# Sequence (P25095 whole entry): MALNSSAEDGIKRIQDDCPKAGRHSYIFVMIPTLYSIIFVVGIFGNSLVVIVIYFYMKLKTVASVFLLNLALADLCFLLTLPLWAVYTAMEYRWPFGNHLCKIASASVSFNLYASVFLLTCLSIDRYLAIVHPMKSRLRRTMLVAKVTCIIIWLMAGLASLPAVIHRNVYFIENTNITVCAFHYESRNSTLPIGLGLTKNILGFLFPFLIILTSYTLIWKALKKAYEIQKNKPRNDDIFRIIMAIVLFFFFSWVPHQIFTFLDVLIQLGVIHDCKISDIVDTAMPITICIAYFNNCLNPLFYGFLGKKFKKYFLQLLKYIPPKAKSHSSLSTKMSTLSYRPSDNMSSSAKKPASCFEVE
# protocolText: Displacement of [125I]Sar1,Ile8-Ang2 from AT1 receptor in Wistar rat hepatic membrane
pIC50: −log10 of the molar value.
recordedMetric: pIC50

>>> datavalue("CCCCn1c2nc(C)ccc2c(=O)n1Cc1ccc(-c2ccccc2-c2nn[nH]n2)cc1")
7.05
>>> datavalue("CCCn1c(=O)c2cccnc2n1Cc1ccc(-c2ccccc2-c2nnn[nH]2)cc1")
6.97
>>> datavalue("CCCCn1c(=O)c2ccc(C)nc2n1Cc1ccc(-c2ccccc2-c2nnn[nH]2)cc1")
7.09

All figures here come from ChEMBL document CHEMBL1145541.
